Recorded Avg. MABP in mm Hg (No. of Rats) values for a group of compounds are listed next.
System: spontaneously hypertensive rats of the Okamoto strain
Assay: Hypotensive activity in spontaneously hypertensive rats (method of Chan and Poorvin)
Assay type: in vivo
Details: by gavage, 100 mg/kg or less, second identical dose 24 hours later; MABP measured 28 hours after initial dose; average MABP of the rats used 160±1.5 mm of mercury

Solved entries (count: 3):
c1cn(CCCNc2ccc3sccc3n2)cn1 [Example 62]
105 (2) mm Hg
COc1ccc2nc(NCCCn3ccnc3)cc(C)c2c1 [Example 21]
110 (2) mm Hg
Cc1ccc(C#N)c(NCCCCCn2ccnc2)n1 [Example 90]
116 (2) mm Hg

Given the compound Cc1cc(NCCCn2ccnc2)nc2c(C)cccc12 [Example 32] , what is its reported Avg. MABP in mm Hg (No. of Rats)? 96 (2) mm Hg

Another compound to look at: N#Cc1cccnc1NCCCn1ccnc1 [Example 4] 117 (4) mm Hg

Another compound to look at: Cc1cc(NCCCc2cccnc2)nc2ccccc12.Cl.Cl [Example 98] 95 (2) mm Hg

Another compound to look at: CC(CNc1nc2ccccc2c2ccccc12)Cn1ccnc1 (stereo not drawn) [Example 86] 114 (2) mm Hg

Another compound to look at: Cc1cc(NCC(C)Cn2ccnc2)nc2ccccc12 (stereo not drawn) [Example 88] 96 (2) mm Hg

* * *

Test system: Male mice of the Swiss Webster Strain
Assay: Calcium chloride-induced arrhythmia in anesthetized mice (survival)
Format: in vivo
Conditions: Mus musculus, iv, Dose = 10 mg/kg i.v.; calcium chloride 200 mg/kg i.v. bolus 5, 15 or 30 minutes after drug; observed 15 minutes; read-out: CaCl2 #Mice Surviving #Mice Tested (converted)
Counter-ions that a name gives are not always drawn.
MEASUREMENT_LABEL: responders at 10 mg/kg (%)
Write the answer as a number in %, unit excluded.

Solved entries (count: 8):
N#Cc1cccnc1NCCCn1ccnc1
66.7
Cc1cc(NCCc2cccnc2)nc2ccccc12 [Example 95, dihydrochloride]
16.7
Cc1nccc2nc(NCCCn3ccnc3)ccc12
33.3
Cc1cccc(NCCCn2ccnc2)n1
0
Cc1cc(NCCCn2ccnc2)nc2c(C)cccc12
0
Cc1ccc(C#N)c(NCCCCCn2ccnc2)n1
0
Cc1ccc2ccc(NCCCn3ccnc3)nc2n1
33.3
Cc1cc(C)c2ccc(NCCCn3ccnc3)nc2n1
16.7

// lookup responders at 10 mg/kg | system=Male mice of the Swiss Webster Strain | key= `Cc1cc(NCCCCc2cccnc2)nc2c(C)cccc12` 0

Another compound to look at: Cc1ccc(C#N)c(NCCc2ccncc2)n1 [Example 97, dihydrochloride] 0

Another compound to look at: `c1ccc2c(c1)nc(NCCCn1ccnc1)c1ccccc12` 33.3

Another compound to look at: `Cc1ccc(C#N)c(NCCCCc2cccnc2)n1` 66.7

Another compound to look at: Cc1cc(NCC(C)Cn2ccnc2)nc2ccccc12 (centres unmarked) 16.7

* * *

Target: thromboxane synthetase enzyme (Rattus norvegicus, UniProt P49430)
Construct: from tissue; host or cells: washed blood platelets from Okamoto-Aoki spontaneously hypertensive rats (SHR)
Experiment: Inhibition of thromboxane (TXB2) formation in washed rat platelets, TXB2 radioimmunoassay
Type: biochemical, Okamoto-Aoki spontaneously hypertensive rats (SHR)
Conditions: Concentration 1x10^-4M, platelet suspension incubated 10 minutes at 37 °C
Recorded inhibition at 100 µM values for a group of compounds are listed next.
Write the answer as a number in %, unit excluded.

c1cnc2nc(NCCCn3ccnc3)ccc2c1 [Example 27]
90

Given the compound N#Cc1ccc(-c2cccc(C(F)(F)F)c2)nc1NCCCn1ccnc1 [Example 18] , what is its reported inhibition at 100 µM? 98

Another compound to look at: NC(=O)c1ccc(NCCCn2ccnc2)nc1 [Example 46] 80

Another compound to look at: Cc1cccc2c(-c3ccccc3)cc(NCCCCc3cccnc3)nc12 [Example 111] 85

Another compound to look at: Cc1cccc2c(-c3ccccc3)cc(NCCCn3ccnc3)nc12 [Example 51] 89

* * *

System: spontaneously hypertensive rats of the Okamoto strain
Experiment: Hypotensive activity in spontaneously hypertensive rats (method of Chan and Poorvin)
Assay type: in vivo
Conditions: by gavage, 100 mg/kg or less, second identical dose 24 hours later; MABP measured 28 hours after initial dose; average MABP of the rats used 160±1.5 mm of mercury
MEASUREMENT_LABEL: Avg. MABP in mm Hg (No. of Rats)

Solved entries (count: 3):
Cc1cc(NCCC(C)n2ccnc2)nc2ccccc12 (stereo not shown) [Example 87]
111 (2) mm Hg
c1ccc2c(c1)nc(NCCCn1ccnc1)c1ccccc12 [Example 8]
103 (2) mm Hg
O=[N+]([O-])c1cccnc1NCCCn1ccnc1 [Example 2]
98 (2) mm Hg

The record that follows has no Avg. MABP in mm Hg (No. of Rats) shown yet.
// lookup Avg. MABP in mm Hg (No. of Rats) | system=spontaneously hypertensive rats of the Okamoto strain | key= c1ccc2c(c1)nc(NCCCCn1ccnc1)c1ccccc12 [Example 104] 93 (1) mm Hg

* * *

System: Male mice of the Swiss Webster Strain
Experiment: Calcium chloride-induced arrhythmia in anesthetized mice (survival)
Format: in vivo
Conditions: Mus musculus, iv, Dose = 10 mg/kg i.v.; calcium chloride 200 mg/kg i.v. bolus 5, 15 or 30 minutes after drug; observed 15 minutes; read-out: CaCl2 #Mice Surviving #Mice Tested (converted)
Description: Intravenous administration of high doses of calcium or potassium chloride in animals produces cardiac arrhythmias, cardiac fibrillation and cardiac arrest. Any agent that can prevent these events is considered an antiarrhythmic/antifibrillatory agent. (Meth. and Find Exptl. Clin Pharmacol.2:223-252(1980); Pharmacol, Ther. 24:401-433 (1984); Experimental Cardiac and Antiarrhythmic Drugs, L. Szekeres and Gy. J. Dapp, Akademiai Kiado Preso, Budapest, 9-448 (1971).) […]
MEASUREMENT_LABEL: responders at 10 mg/kg (%)
Write the answer as a number in %, unit excluded.

Solved entries (count: 3):
c1ccc2nc(NCCCn3ccnc3)ccc2c1 [Example 5]
83.3
CC(CNc1nc2ccccc2c2ccccc12)Cn1ccnc1 (stereo not shown) [Example 86]
16.7
O=[N+]([O-])c1cccnc1NCCCn1ccnc1 [Example 2]
50

Given the compound Cc1cc(NCCCn2ccnc2)nc2nc(N)ccc12 [Example 34] , what is its reported responders at 10 mg/kg? 50

* * *

Molecular target: thromboxane synthetase enzyme (Rattus norvegicus, UniProt P49430)
Construct: from tissue; host or cells: washed blood platelets from Okamoto-Aoki spontaneously hypertensive rats (SHR)
Sequence (P49430 1-533): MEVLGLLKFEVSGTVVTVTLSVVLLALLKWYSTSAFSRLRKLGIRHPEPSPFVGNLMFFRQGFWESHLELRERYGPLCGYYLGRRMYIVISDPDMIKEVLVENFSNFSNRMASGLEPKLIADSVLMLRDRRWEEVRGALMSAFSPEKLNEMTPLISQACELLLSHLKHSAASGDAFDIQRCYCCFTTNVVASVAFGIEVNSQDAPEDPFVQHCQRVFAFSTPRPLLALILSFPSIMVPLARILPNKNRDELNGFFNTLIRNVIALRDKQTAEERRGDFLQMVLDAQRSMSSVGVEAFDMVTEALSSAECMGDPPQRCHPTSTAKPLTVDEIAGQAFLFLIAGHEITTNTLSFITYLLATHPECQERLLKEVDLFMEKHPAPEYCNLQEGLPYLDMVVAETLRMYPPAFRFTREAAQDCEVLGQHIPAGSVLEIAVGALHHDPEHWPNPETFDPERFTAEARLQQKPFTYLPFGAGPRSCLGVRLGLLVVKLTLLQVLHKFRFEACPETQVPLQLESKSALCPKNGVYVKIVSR
Experiment: Inhibition of thromboxane (TXB2) formation in washed rat platelets, TXB2 radioimmunoassay
Type: biochemical, Okamoto-Aoki spontaneously hypertensive rats (SHR)
Settings: Concentration 1x10^-4M, platelet suspension incubated 10 minutes at 37 °C
Recorded inhibition at 100 µM values for a group of molecules are listed next.
Write the answer as a number in %, unit excluded.

Solved entries (count: 5):
N#Cc1ccc(NCCCn2ccnc2)nc1-c1cccc(C(F)(F)F)c1 [Example 71]
100
Cc1cc(C)c2ccc(NCCCCc3cccnc3)nc2n1 [Example 109]
97
c1ccc2nc(NCCCn3ccnc3)ccc2c1 [Example 5]
93
Cc1ccc(C#N)c(NCc2ccncc2)n1 [Example 93]
86
c1ccc2c(c1)nc(NCCCn1ccnc1)c1ccccc12 [Example 8]
100

Given the molecule Clc1cccc(NCCCn2ccnc2)n1 [Example 47] , what is its reported inhibition at 100 µM? 91

Another molecule to look at: N#Cc1cccnc1NCCCn1ccnc1 [Example 4] 93

Another molecule to look at: O=[N+]([O-])c1cccnc1NCCCn1ccnc1 [Example 2] 80

* * *

Molecular target: thromboxane synthetase enzyme (Rattus norvegicus)
Construct: from tissue; host or cells: washed blood platelets from Okamoto-Aoki spontaneously hypertensive rats (SHR)
Sequence (P49430 1-533): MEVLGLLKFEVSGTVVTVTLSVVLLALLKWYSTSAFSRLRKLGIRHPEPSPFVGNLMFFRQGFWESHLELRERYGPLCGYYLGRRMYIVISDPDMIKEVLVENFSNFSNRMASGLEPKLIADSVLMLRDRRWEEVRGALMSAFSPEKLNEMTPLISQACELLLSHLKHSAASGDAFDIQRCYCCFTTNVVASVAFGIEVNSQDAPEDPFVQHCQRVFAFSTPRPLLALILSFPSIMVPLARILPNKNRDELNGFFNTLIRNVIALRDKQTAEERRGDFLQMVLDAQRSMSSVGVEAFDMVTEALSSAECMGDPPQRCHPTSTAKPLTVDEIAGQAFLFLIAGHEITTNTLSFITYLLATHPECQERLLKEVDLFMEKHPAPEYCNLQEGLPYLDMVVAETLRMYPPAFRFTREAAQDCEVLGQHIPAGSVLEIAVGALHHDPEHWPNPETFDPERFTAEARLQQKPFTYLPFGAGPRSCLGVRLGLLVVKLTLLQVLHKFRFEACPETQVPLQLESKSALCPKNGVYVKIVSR
Assay: Inhibition of thromboxane (TXB2) formation in washed rat platelets, TXB2 radioimmunoassay
Type: biochemical, Okamoto-Aoki spontaneously hypertensive rats (SHR)
Conditions: Concentration 1x10^-4M, platelet suspension incubated 10 minutes at 37 °C
Counter-ions that a name gives are not always drawn.
Recorded inhibition at 100 µM values for a group of compounds are listed next.
Write the answer as a number in %, unit excluded.

Solved entries (count: 5):
CC(=O)c1cc(C#N)c(NCCCn2ccnc2)nc1C [Example 12]
96
c1cncc(CCCCNc2nccc3ccccc23)c1 [Example 105, dihydrochloride]
97
c1cn(CCCNc2ccc3sccc3n2)cn1 [Example 62]
91
Cc1nccc2nc(NCCCn3ccnc3)ccc12 [Example 40]
95
CC(CCNc1nc2ccccc2c2ccccc12)n1ccnc1 (stereo not drawn) [Example 89]
98

The record that follows has no inhibition at 100 µM shown yet.
Given the compound Cc1cc(NCCCCc2cccnc2)nc2c(C)cccc12 [Example 107] , what is its reported inhibition at 100 µM? 99

Origin of values: patent EP0446604A2
